Target: mutant MGL (Homo sapiens, UniProt Q99685, L169S/L176S)
Sequence (Q99685 1-303 L169S/L176S): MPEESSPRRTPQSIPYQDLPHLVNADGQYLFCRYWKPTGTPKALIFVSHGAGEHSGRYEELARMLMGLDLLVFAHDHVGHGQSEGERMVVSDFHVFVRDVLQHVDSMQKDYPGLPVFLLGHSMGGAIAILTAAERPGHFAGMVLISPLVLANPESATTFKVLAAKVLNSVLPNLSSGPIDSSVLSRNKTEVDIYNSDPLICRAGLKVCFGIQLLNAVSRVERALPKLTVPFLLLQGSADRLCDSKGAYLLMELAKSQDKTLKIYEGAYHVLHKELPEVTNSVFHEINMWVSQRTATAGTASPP
Assay: MGL ThermoFluor assay - mutant
Type: binding
Conditions: ThermoFluor concentration-response, read-out: MGL mutant ThermoFluor Kd
assayReadout: Kd (nM)

Use these answered entries as a reference point.
## Task Can you look up the measured Kd of CC(C)Cc1ccc(C(=O)N2CC(N3CCN(C(=O)c4nccs4)CC3)C2)cc1 [Cpd 891] for me?
## Result 8

## Task Field entry: Cc1cc(C(=O)N2CC(N3CCN(C(=O)c4nccs4)CC3)C2)ccc1-c1ccccc1 [Cpd 1322]
## Result 2

1: O=C(c1ccccc1)N1CCN(C2CN(C(=O)c3ccc(Br)cc3)C2)CC1 [Cpd 27]
2: CC1CN(C2CN(C(=O)c3ccc(Cc4ccccc4)cc3)C2)CCN1C(=O)c1nccs1 (centres unmarked) [Cpd 115]
## Task Pick one: 1 or 2 . Which one has the lower reported Kd? To answer, give the label that identifies your chosen option.
## Result 2

I: O=C(c1ccc2[nH]c(C3CCCCC3)nc2c1)N1CC(N2CCN(C(=O)c3cscn3)CC2)C1 [Cpd 800]
II: O=C(/C=C/c1ccccc1Br)N1CC(N2CCN(C(=O)c3ccccc3)CC2)C1 [Cpd 104]
III: O=C(c1ccc(S(=O)(=O)c2cccc(C(F)(F)F)c2)cc1)N1CC(N2CCN(C(=O)c3cscn3)CC2)C1 [Cpd 738]
IV: O=C(c1cscn1)N1CC(N2CCN(C(=O)c3cc4cc(C(F)(F)F)ccc4s3)CC2)C1 [Cpd 716]
## Task Reorder the items by Kd, least to greatest. Write out the labels following the order that was asked for.
## Result IV, III, I, II
